Every entry's value here was drawn from ChEMBL document CHEMBL1201861.

The entries below are paired with their reported pIC50.
test system: BL-41; test: cells; assay type: functional, cell-based; conditions: Homo sapiens;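 note: growth inhibition of human BL-41 cells, read out with a cell viability assay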
Description: SANGER: Inhibition of human BL-41 cell growth in a cell viability assay.
pIC50: −log10 of the molar value.

- molecule: "C[C@]1(O)C[C@@H](c2nc(-c3ccc4ccc(-c5ccccc5)nc4c3)c3c(N)nccn32)C1"
  pIC50: "< 5.59"
- molecule: "COc1cc([C@@H]2c3cc4c(cc3[C@@H](O[C@@H]3O[C@@H]5CO[C@@H](C)O[C@H]5[C@H](O)[C@H]3O)[C@H]3COC(=O)[C@H]23)OCO4)cc(OC)c1O [ETOPOSIDE]"
  pIC50: 5.68
- molecule: "CC1=C2C[C@H]3[C@@H](CC=C4C[C@@H](O)CC[C@@]43C)[C@@H]2CC[C@]12O[C@@H]1C[C@H](C)CN[C@H]1[C@H]2C"
  pIC50: "< 4.80"
- molecule: "Cn1cncc1[C@@](N)(c1ccc(Cl)cc1)c1ccc2c(c1)c(-c1cccc(Cl)c1)cc(=O)n2C"
  pIC50: 5.56
- molecule: "C=C1C(=O)O[C@@H]2C3O[C@]3(C)CC/C=C(\\C)CC[C@@H]12 (some centres undefined)"
  pIC50: "< 5.30"
- molecule: "C=CCc1cccc(/C=N/NC(=O)CN2CCN(Cc3ccccc3)CC2)c1O"
  pIC50: 5.84
- molecule: "CS(=O)(=O)CCNCc1ccc(-c2ccc3ncnc(Nc4ccc(OCc5cccc(F)c5)c(Cl)c4)c3c2)o1"
  pIC50: "< 5.70"
- molecule: "Cc1cnc(-c2cnc(NCCNc3ccc(C#N)cn3)nc2-c2ccc(Cl)cc2Cl)[nH]1"
  pIC50: "< 5.59"
- molecule: "CCc1nc(N)nc(N)c1-c1ccc(Cl)cc1"
  pIC50: "< 4.70"

* * *

The entries below are paired with their reported pIC50.
test system: GAK; assay: cells; type: functional, cell-based, Homo sapiens; conditions: Homo sapiens, GAK;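 note: cell growth inhibition read out by a cell viability assay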
Description: SANGER: Inhibition of human GAK cell growth in a cell viability assay.
pIC50: −log10 of the molar value.
reported_endpoint: pIC50

- compound: "C=CCNC1=C2C[C@@H](C)C[C@H](OC)[C@H](O)[C@@H](C)/C=C(\\C)[C@H](OC(N)=O)[C@@H](OC)/C=C\\C=C(/C)C(=O)NC(=CC1=O)C2=O"
  inequality_sign: "="
  observed: 6.87
- compound: "CN(Cc1cnc2nc(N)nc(N)c2n1)c1ccc(C(=O)N[C@@H](CCC(=O)O)C(=O)O)cc1 [METHOTREXATE]"
  inequality_sign: "<"
  observed: 6.70
- compound: "Cc1cnc(-c2cnc(NCCNc3ccc(C#N)cn3)nc2-c2ccc(Cl)cc2Cl)[nH]1"
  inequality_sign: "<"
  observed: 5.59
- compound: "COC(=O)CNC(=O)C(=O)OC"
  inequality_sign: "="
  observed: 3.11
- compound: "CCc1nc(N)nc(N)c1-c1ccc(Cl)cc1"
  inequality_sign: "<"
  observed: 4.70

* * *

tested on: ACN; assay: cells; type: functional, cell-based, Homo sapiens; conditions: Homo sapiens, ACN;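 note: growth inhibition of the human ACN cell line, read out via cell viability testing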
Description: SANGER: Inhibition of human ACN cell growth in a cell viability assay.

- test_smiles: "C[C@]1(O)C[C@@H](c2nc(-c3ccc4ccc(-c5ccccc5)nc4c3)c3c(N)nccn32)C1"
  target_or_system: "ACN"
  inequality_sign: ">"
  IC50 / µM: 2.56
- test_smiles: "COc1ccc(-c2ccc3c(N4CCOC[C@@H]4C)nc(N4CCOC[C@@H]4C)nc3n2)cc1CO"
  target_or_system: "ACN"
  inequality_sign: "="
  IC50 / µM: 0.943
- test_smiles: "CCC(=O)N1CCN(c2ccc(-n3c(=O)ccc4cnc5ccc(-c6cnc7ccccc7c6)cc5c43)cc2C(F)(F)F)CC1"
  target_or_system: "ACN"
  inequality_sign: "="
  IC50 / µM: 0.015
- test_smiles: "CCOc1nc(NC(=O)Cc2cc(OC)ccc2OC)cc(N)c1C#N"
  target_or_system: "ACN"
  inequality_sign: ">"
  IC50 / µM: 10

* * *

system: BT-474; test: cells; type: functional, cell-based, Homo sapiens; details: Homo sapiens, BT-474
Description: SANGER: Inhibition of human BT-474 cell growth in a cell viability assay.
The entries below are paired with their reported IC50.

- test_smiles: "O=C(NOCC1CC1)c1ccc(F)c(F)c1Nc1ccc(I)cc1Cl"
  IC50: "> 10000 nM"
- test_smiles: "COc1ccc(-c2ccc3c(N4CCOC[C@@H]4C)nc(N4CCOC[C@@H]4C)nc3n2)cc1CO"
  IC50: "1780 nM"
- test_smiles: "CC(=O)O[C@@]12CO[C@@H]1C[C@H](O)[C@@]1(C)C(=O)[C@H](O)C3=C(C)[C@@H](OC(=O)[C@H](O)[C@@H](NC(=O)OC(C)(C)C)c4ccccc4)C[C@@](O)([C@@H](OC(=O)c4ccccc4)[C@H]21)C3(C)C"
  IC50: "> 10 nM"
- test_smiles: "CCC(=O)N1CCN(c2ccc(-n3c(=O)ccc4cnc5ccc(-c6cnc7ccccc7c6)cc5c43)cc2C(F)(F)F)CC1"
  IC50: "293 nM"
- test_smiles: "Cc1cnc(-c2cnc(NCCNc3ccc(C#N)cn3)nc2-c2ccc(Cl)cc2Cl)[nH]1"
  IC50: "> 2560 nM"
- test_smiles: "CCOc1nc(NC(=O)Cc2cc(OC)ccc2OC)cc(N)c1C#N"
  IC50: "> 10000 nM"
- test_smiles: "O=C1N=C(NCc2cccs2)S/C1=C\\c1ccc2ncccc2c1"
  IC50: "> 5000 nM"

* * *

system: KP-N-RT-BM-1; assay: SANGER: Inhibition of human KP-N-RT-BM-1 cell growth in a cell viability assay.; assay type: functional, cell-based
pIC50: −log10 of the molar value.

- test_smiles: "CN1CCN(CCOc2cc(OC3CCOCC3)c3c(Nc4c(Cl)ccc5c4OCO5)ncnc3c2)CC1"
  target_or_system: "KP-N-RT-BM-1"
  pIC50: "< 5.70"

* * *

The entries below are paired with their reported IC50.
system: Calu-1; experiment: SANGER: Inhibition of human Calu-1 cell growth in a cell viability assay.; format: functional, cell-based
reported_endpoint: IC50

- molecule: "Cc1ccc(Nc2nccc(N(C)c3ccc4c(C)n(C)nc4c3)n2)cc1S(N)(=O)=O"
  reported_endpoint: "IC50"
  observed: "> 8 µM"
- molecule: "Cc1cc([C@@H](C)Nc2ccccc2C(=O)O)c2nc(N3CCOCC3)cc(=O)n2c1"
  reported_endpoint: "IC50"
  observed: "> 5.12 µM"
- molecule: "CCC1=C[C@@H]2CN(C1)Cc1c([nH]c3ccccc13)[C@@](C(=O)OC)(c1cc3c(cc1OC)N(C)[C@H]1[C@@](O)(C(=O)OC)[C@H](OC(C)=O)[C@]4(CC)C=CCN5CC[C@]31[C@@H]54)C2"
  reported_endpoint: "IC50"
  observed: "> 0.064 µM"
- molecule: "COc1cc([C@@H]2c3cc4c(cc3[C@@H](O[C@@H]3O[C@@H]5CO[C@@H](C)O[C@H]5[C@H](O)[C@H]3O)[C@H]3COC(=O)[C@H]23)OCO4)cc(OC)c1O [ETOPOSIDE]"
  reported_endpoint: "IC50"
  observed: "7.89 µM"

* * *

system: Lu-65; test: cells; format: functional, cell-based; settings: Homo sapiens
Description: SANGER: Inhibition of human LU-65 cell growth in a cell viability assay.
The entries below are paired with their reported IC50.

- molecule: "COc1cc([C@@H]2c3cc4c(cc3[C@@H](O[C@@H]3O[C@@H]5CO[C@@H](C)O[C@H]5[C@H](O)[C@H]3O)[C@H]3COC(=O)[C@H]23)OCO4)cc(OC)c1O [ETOPOSIDE]"
  IC50: "> 16 µM"
- molecule: "CN1CCN(CCOc2cc(OC3CCOCC3)c3c(Nc4c(Cl)ccc5c4OCO5)ncnc3c2)CC1"
  IC50: "> 2 µM"
- molecule: "O=C(/C=C/c1ccccc1)NC(NC(=S)Nc1cccc2cccnc12)C(Cl)(Cl)Cl (stereo not given)"
  IC50: "> 16 µM"
- molecule: "Cc1cc([C@@H](C)Nc2ccccc2C(=O)O)c2nc(N3CCOCC3)cc(=O)n2c1"
  IC50: "> 5.12 µM"
- molecule: "Cc1ccc(Nc2nccc(N(C)c3ccc4c(C)n(C)nc4c3)n2)cc1S(N)(=O)=O"
  IC50: "> 8 µM"

* * *

The entries below are paired with their reported IC50.
system: LC4-1; test: cells; type: functional, cell-based; details: Homo sapiens
Description: SANGER: Inhibition of human LC4-1 cell growth in a cell viability assay.

- compound: "C[C@]1(O)C[C@@H](c2nc(-c3ccc4ccc(-c5ccccc5)nc4c3)c3c(N)nccn32)C1 [LINSITINIB]"
  IC50: "> 2.56 µM"
- compound: "C=C1C(=O)O[C@@H]2C3O[C@]3(C)CC/C=C(\\C)CC[C@@H]12 (stereo partly specified)"
  IC50: "> 5 µM"
- compound: "C=CCc1cccc(/C=N/NC(=O)CN2CCN(Cc3ccccc3)CC2)c1O [PAC-1]"
  IC50: "> 2.56 µM"
- compound: "O=C(/C=C/c1ccccc1)NC(NC(=S)Nc1cccc2cccnc12)C(Cl)(Cl)Cl (stereo unspecified) [SALUBRINAL]"
  IC50: "> 16 µM"
- compound: "CCc1nc(N)nc(N)c1-c1ccc(Cl)cc1 [PYRIMETHAMINE]"
  IC50: "> 20 µM"
- compound: "CCC(=O)N1CCN(c2ccc(-n3c(=O)ccc4cnc5ccc(-c6cnc7ccccc7c6)cc5c43)cc2C(F)(F)F)CC1 [TORIN1]"
  IC50: "0.0874 µM"
- compound: "Cc1ccc(Nc2nccc(N(C)c3ccc4c(C)n(C)nc4c3)n2)cc1S(N)(=O)=O [PAZOPANIB]"
  IC50: "> 8 µM"
- compound: "CS(=O)(=O)CCNCc1ccc(-c2ccc3ncnc(Nc4ccc(OCc5cccc(F)c5)c(Cl)c4)c3c2)o1 [LAPATINIB]"
  IC50: "> 2 µM"
- compound: "CN1CCN(CCOc2cc(OC3CCOCC3)c3c(Nc4c(Cl)ccc5c4OCO5)ncnc3c2)CC1 [SARACATINIB]"
  IC50: "> 2 µM"
- compound: "CC1=C2C[C@H]3[C@@H](CC=C4C[C@@H](O)CC[C@@]43C)[C@@H]2CC[C@]12O[C@@H]1C[C@H](C)CN[C@H]1[C@H]2C [CYCLOPAMINE]"
  IC50: "> 16 µM"
- compound: "COc1cc([C@@H]2c3cc4c(cc3[C@@H](O[C@@H]3O[C@@H]5CO[C@@H](C)O[C@H]5[C@H](O)[C@H]3O)[C@H]3COC(=O)[C@H]23)OCO4)cc(OC)c1O [ETOPOSIDE]"
  IC50: "3.23 µM"
